Test system: UACC-62 melanoma
test name: NCI tumour cell line growth inhibition, 48 h
reported metric: TGI (µM)
Supply the numeric figure in µM, leaving out any unit text.

{"molecule": "N#Cc1nc(-c2ccc(F)cc2)oc1S(=O)(=O)N1CCOCC1", "unit tag": "µM", "TGI": 17.6}
{"molecule": "O=C(O[C@H](/C=C/c1ccccc1)P1(=O)N(Cc2ccccc2)[C@@H]2CCCC[C@H]2N1Cc1ccccc1)c1ccccc1", "unit tag": "µM", "TGI": 40}
{"molecule": "N#Cc1c2c(c(Nc3ccc(F)cc3)n3c1nc1ccccc13)CCC2", "unit tag": "µM", "TGI": 25.1}

Reported TGI of Cc1nc(Cl)c(CBr)c(Cl)n1 : 3.46

Reported TGI of Cc1cccc(C[C@@]2(SCc3ccccc3)C(C)(C)[C@@H]3CC[C@@]2(C)C3)n1 : 35.5

---

Test system: COLO 205 colon
test name: NCI tumour cell line growth inhibition, 48 h
reported metric: TGI

Known TGI results, listed for orientation:
{"compound": "CC1=C2c3ccccc3N(C(=O)/C=C/C(=O)O)[C@H]2[C@H]2C(=O)OC(=O)[C@H]2C1", "TGI": "> 10 µM"}
{"compound": "CCC[C@H](C)[C@H]1NC(=O)[C@@H](NC(=O)[C@@H](CC(C)C)N(C)C(=O)C2CCCN2C(=O)[C@H](C)O)[C@@H](C)OC(=O)[C@H](CC(C)C)N(C)C(=O)[C@@H]2CCCN2C(=O)[C@H](CC(C)C)NC(=O)[C@@H](C)C(=O)[C@H](C(C)C)OC(=O)C[C@@H]1O (some centres undefined)", "TGI": "< 0.0025 µM"}
{"compound": "O=c1[nH]c(=O)n(C2CC(O)C(CO)O2)cc1C#Cc1c(F)c(F)c(F)c(F)c1F (centres undefined)", "TGI": "> 100 µM"}

Below: the item to evaluate.
Reported TGI of CC1CCC[P+](Cc2ccccc2)(c2ccccc2)CC1 (centres undefined) : > 100 µM

---

Test system: SK-MEL-28 melanoma
test name: NCI tumour cell line growth inhibition, 48 h
Where a SMILES comes first, the peptide text is derived from it. [ ]: non-standard residue; d: D form. The star is where a group is joined. Bn2Val = CC(C)[C@@H](C(=O)*)N(Cc1ccccc1)Cc1ccccc1; NH(3,4-diMeO-benzyl) = COc1ccc(CN*)cc1OC; NMeV = CN[C@H](C(=O)O)C(C)C; dNMeA = CN[C@H](C)C(=O)O
GI50 overview

{"molecule": "COc1ccc(CNC(=O)[C@@H](C)N(C)C(=O)[C@@H]2CCCN2C(=O)[C@H](C(C)C)N(C)C(=O)[C@@H](NC(=O)[C@H](C(C)C)N(Cc2ccccc2)Cc2ccccc2)C(C)C)cc1OC (Bn2Val-V[NMeV]P[dNMeA]-{NH(3,4-diMeO-benzyl)})", "GI50": "13.5 µM"}

Value sought: GI50, system SK-MEL-28 melanoma, item ClCc1ccccc1CSc1ncnc2nc[nH]c12 . Result: > 60 µM

Value sought: GI50, system SK-MEL-28 melanoma, item COC(=O)c1c2c(c(C)[n+]([O-])c1C)C(=O)C=CC2=O . Result: 1.96 µM

Value sought: GI50, system SK-MEL-28 melanoma, item NNC(=O)c1cnn(-c2ccnc3c(C(F)(F)F)cccc23)c1N . Result: > 100 µM

Value sought: GI50, system SK-MEL-28 melanoma, item CC1=C2[C@@H](CC1)[C@]1(C)O[C@@](C(C)C)(C[C@H]1OC(=O)[C@H](C)O)[C@H]2OC(=O)/C=C/c1ccccc1 . Result: 16.5 µM
